Reference source: paper PMC8788362

# melting point annotations

Req: Which measured melting point value corresponds to CCN1CCC(Nc2cc(C(=O)Nc3ccc4[nH]c(-c5ccc6cn[nH]c6c5)nc4c3)cc(C(F)(F)F)c2)CC1 [8t] ?
Resp: 166 to 168 °C

Req: Which measured melting point value corresponds to CCN1CCN(Cc2cc(C(=O)Nc3ccc4[nH]c(-c5ccc6cn[nH]c6c5)nc4c3)cc(C(F)(F)F)c2)CC1 [8r] ?
Resp: 265 to 267 °C

Req: Which measured melting point value corresponds to CN1CCN(c2ccc(C(=O)Nc3ccc4[nH]c(-c5ccc6cn[nH]c6c5)nc4c3)cc2C(F)(F)F)CC1 [8e] ?
Resp: 160 to 161 °C

Req: Which measured melting point value corresponds to CC(C)(C)c1cc(NC(=O)Nc2ccc3[nH]c(-c4ccc5cn[nH]c5c4)nc3c2)no1 [8l] ?
Resp: 184 to 186 °C

Req: Which measured melting point value corresponds to CN1CCCC(Nc2cc(C(=O)Nc3ccc4[nH]c(-c5ccc6cn[nH]c6c5)nc4c3)cc(C(F)(F)F)c2)C1 (centres unmarked) [8v] ?
Resp: 213 to 214 °C

----------
Molecular target: FLT3 wild type (Homo sapiens)
Construct: purchased Reaction Biology Corp. (Kinase HotSpot service)
Sequence (P36888 27-993): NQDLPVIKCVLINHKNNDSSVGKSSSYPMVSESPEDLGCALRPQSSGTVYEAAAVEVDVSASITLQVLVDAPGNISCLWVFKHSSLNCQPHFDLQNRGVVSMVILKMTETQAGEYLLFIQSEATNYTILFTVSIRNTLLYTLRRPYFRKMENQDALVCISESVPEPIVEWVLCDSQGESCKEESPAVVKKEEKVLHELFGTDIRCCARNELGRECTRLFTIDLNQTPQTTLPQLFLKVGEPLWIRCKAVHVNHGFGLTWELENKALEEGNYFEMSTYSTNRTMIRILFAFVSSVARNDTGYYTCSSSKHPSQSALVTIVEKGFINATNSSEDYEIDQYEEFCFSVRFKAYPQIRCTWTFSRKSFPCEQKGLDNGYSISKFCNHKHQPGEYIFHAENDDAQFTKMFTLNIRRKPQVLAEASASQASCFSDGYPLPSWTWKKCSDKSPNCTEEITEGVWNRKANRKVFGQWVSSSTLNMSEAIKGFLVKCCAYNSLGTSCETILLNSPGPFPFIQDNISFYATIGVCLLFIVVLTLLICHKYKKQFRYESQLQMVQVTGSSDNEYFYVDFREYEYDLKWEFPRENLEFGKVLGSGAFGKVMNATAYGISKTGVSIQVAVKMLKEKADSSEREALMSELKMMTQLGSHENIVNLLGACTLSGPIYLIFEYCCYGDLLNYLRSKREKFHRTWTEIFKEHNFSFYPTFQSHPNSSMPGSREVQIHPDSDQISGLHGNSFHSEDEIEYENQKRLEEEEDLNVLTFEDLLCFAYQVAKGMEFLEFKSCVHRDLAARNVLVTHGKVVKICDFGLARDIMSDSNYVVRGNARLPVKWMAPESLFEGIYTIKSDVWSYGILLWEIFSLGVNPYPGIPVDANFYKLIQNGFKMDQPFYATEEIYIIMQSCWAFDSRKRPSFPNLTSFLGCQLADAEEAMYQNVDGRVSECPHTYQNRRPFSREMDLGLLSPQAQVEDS
Assay: Reaction Biology Kinase HotSpot radiometric kinase assay
Format: biochemical
Details: ATP 10 µM; read-out: FLT3 wild type IC50
Property Measured: pIC50
Would you please state pIC50, meaning minus log10 of the concentration in mol/L, as a bare number?

Req: Which measured pIC50 value corresponds to CCN1CCN(c2cc(C(=O)Nc3ccc4[nH]c(-c5ccc6cn[nH]c6c5)nc4c3)cc(C(F)(F)F)c2)CC1(C)C [8z] ?
Resp: 7.18

----------
Molecular target: FLT3 (F594_R595 ins R) (Homo sapiens, UniProt P36888, INS594R)
Assay: Reaction Biology Kinase HotSpot radiometric kinase assay
From the text: (specific activity approx. 500 cpm/pmol, concentration as required).
Property Measured: IC50 (nM)
Number in nM, nothing else.

Req: Please state recorded IC50 (tested on FLT3 (F594_R595 ins R) (Homo sapiens, UniProt P36888, INS594R)) of CCN1CCN(Cc2cc(C(=O)Nc3ccc4[nH]c(-c5ccc6cn[nH]c6c5)nc4c3)cc(C(F)(F)F)c2)CC1 [8r]
Resp: 37.3

----------
molecular target: FLT3 wild type (Homo sapiens); construct: purchased Reaction Biology Corp. (Kinase HotSpot service); assay: Reaction Biology Kinase HotSpot radiometric kinase assay; format: biochemical; conditions: ATP 10 µM; read-out: FLT3 IC50
Property Measured: pIC50
Would you please state pIC50, meaning minus log10 of the concentration in mol/L, as a bare number?

The cases that follow already have their pIC50 on record.
>  <Molecule>
O=C(Nc1ccc2[nH]c(-c3ccc4cn[nH]c4c3)nc2c1)c1cc(N2CCN(C3CC3)CC2)cc(C(F)(F)F)c1 [8p]

>  <pIC50>
6.39

$$$$
>  <Molecule>
CN1CCN(c2cc(C(=O)Nc3ccc4[nH]c(-c5ccc6cn[nH]c6c5)nc4c3)cc(C(F)(F)F)c2)CC1 [8a]

>  <pIC50>
6.74

$$$$

Req: Which measured pIC50 value corresponds to CN1CCCC(Nc2cc(C(=O)Nc3ccc4[nH]c(-c5ccc6cn[nH]c6c5)nc4c3)cc(C(F)(F)F)c2)C1 (centres unmarked) [8v] ?
Resp: 6.97

Req: Which measured pIC50 value corresponds to COc1ccc(/C=C/C(=O)Nc2ccc3[nH]c(-c4ccc5cn[nH]c5c4)nc3c2)cc1 [8k] ?
Resp: 6.12

Req: Which measured pIC50 value corresponds to CN1CCC(Oc2cc(C(=O)Nc3ccc4[nH]c(-c5ccc6cn[nH]c6c5)nc4c3)cc(C(F)(F)F)c2)CC1 [8u] ?
Resp: 6.54

----------
# melting point annotations

The cases that follow already have their melting point on record.
>  <Compound>
O=C(Nc1ccc2[nH]c(-c3ccc4cn[nH]c4c3)nc2c1)c1cnn(-c2ccccc2)c1C(F)(F)F

>  <Experimental Result>
258 to 260 °C

$$$$
>  <Compound>
Cc1cn(-c2cc(C(=O)Nc3ccc4[nH]c(-c5ccc6cn[nH]c6c5)nc4c3)cc(C(F)(F)F)c2)cn1

>  <Experimental Result>
239 to 241 °C

$$$$
>  <Compound>
CN1CCN(c2cc(C(=O)Nc3ccc4[nH]c(-c5ccc6cn[nH]c6c5)nc4c3)cc(C(F)(F)F)c2)CC1

>  <Experimental Result>
228 to 230 °C

$$$$
>  <Compound>
CCN1CCN(Cc2ccc(C(=O)Nc3ccc4[nH]c(-c5ccc6cn[nH]c6c5)nc4c3)cc2C(F)(F)F)CC1

>  <Experimental Result>
164 to 166 °C

$$$$
>  <Compound>
CCN(CC)C1CCN(c2cc(C(=O)Nc3ccc4[nH]c(-c5ccc6cn[nH]c6c5)nc4c3)cc(C(F)(F)F)c2)C1 (stereo not drawn)

>  <Experimental Result>
221 to 223 °C

$$$$
>  <Compound>
O=C(Nc1ccc2[nH]c(-c3ccc4cn[nH]c4c3)nc2c1)c1ccc(N2CCOCC2)c(C(F)(F)F)c1

>  <Experimental Result>
202 to 204 °C

$$$$

Req: Which measured melting point value corresponds to `O=C(Nc1ccc(Cl)c(Cl)c1)Nc1ccc2[nH]c(-c3ccc4cn[nH]c4c3)nc2c1` ?
Resp: 144 to 146 °C

Req: Which measured melting point value corresponds to `CN1CCC(Oc2cc(C(=O)Nc3ccc4[nH]c(-c5ccc6cn[nH]c6c5)nc4c3)cc(C(F)(F)F)c2)CC1` ?
Resp: 293 to 295 °C

Req: Which measured melting point value corresponds to `O=C(Nc1ccc2[nH]c(-c3ccc4cn[nH]c4c3)nc2c1)c1ccc(Cl)c(Cl)c1` ?
Resp: 255 to 257 °C

Req: Which measured melting point value corresponds to `Cc1nccn1-c1cc(C(=O)Nc2ccc3[nH]c(-c4ccc5cn[nH]c5c4)nc3c2)cc(C(F)(F)F)c1` ?
Resp: 251 to 253 °C

Req: Which measured melting point value corresponds to `O=C(Nc1ccc2[nH]c(-c3ccc4cn[nH]c4c3)nc2c1)c1cc(CN2CCN(C3CC3)CC2)cc(C(F)(F)F)c1` ?
Resp: 150 to 152 °C

Req: Which measured melting point value corresponds to `CN1CCC(Nc2cc(C(=O)Nc3ccc4[nH]c(-c5ccc6cn[nH]c6c5)nc4c3)cc(C(F)(F)F)c2)CC1` ?
Resp: 175 to 177 °C

Req: Which measured melting point value corresponds to `COc1ccc(/C=C/C(=O)Nc2ccc3[nH]c(-c4ccc5cn[nH]c5c4)nc3c2)cc1` ?
Resp: 206 to 208 °C

Req: Which measured melting point value corresponds to `O=C(Nc1ccc2[nH]c(-c3ccc4cn[nH]c4c3)nc2c1)c1cc(N2CCN(C3CC3)CC2)cc(C(F)(F)F)c1` ?
Resp: 154 to 156 °C

Req: Which measured melting point value corresponds to `CCN1CCN(c2cc(C(=O)Nc3ccc4[nH]c(-c5ccc6cn[nH]c6c5)nc4c3)cc(C(F)(F)F)c2)CC1(C)C` ?
Resp: 153 to 154 °C

Req: Which measured melting point value corresponds to CN(C)C1CCN(c2cc(C(=O)Nc3ccc4[nH]c(-c5ccc6cn[nH]c6c5)nc4c3)cc(C(F)(F)F)c2)C1 (stereo not drawn) ?
Resp: 283 to 285 °C

Req: Which measured melting point value corresponds to `CN1CCC(Oc2ccc(C(=O)Nc3ccc4[nH]c(-c5ccc6cn[nH]c6c5)nc4c3)cc2C(F)(F)F)CC1` ?
Resp: 293 to 295 °C

Req: Which measured melting point value corresponds to `CC(C)(C)c1cc(C(=O)Nc2ccc3[nH]c(-c4ccc5cn[nH]c5c4)nc3c2)no1` ?
Resp: 147 to 149 °C

Req: Which measured melting point value corresponds to `CCN1CCN(Cc2cc(C(=O)Nc3ccc4[nH]c(-c5ccc6cn[nH]c6c5)nc4c3)cc(C(F)(F)F)c2)CC1(C)C` ?
Resp: 255 to 257 °C

Req: Which measured melting point value corresponds to `O=C(Nc1ccc2[nH]c(-c3ccc4cn[nH]c4c3)nc2c1)c1cc(N2CCOCC2)cc(C(F)(F)F)c1` ?
Resp: 195 to 196 °C

Req: Which measured melting point value corresponds to `O=C(Nc1ccc2[nH]c(-c3ccc4cn[nH]c4c3)nc2c1)c1ccc(Cl)c(C(F)(F)F)c1` ?
Resp: 215 to 217 °C
